B1: GOLPH3 (parent)
chain: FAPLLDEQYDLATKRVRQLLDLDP

- Variants of: B1
- Test Description: protein stability index of a GFP-peptide fusion (GPS, HEK-293T) (PSI 1-6); higher = more stable;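 further: lentivirally expressed fusions sorted by FACS into six bins by GFP to DsRed ratio, PSI derived from sequencing read proportions per bin multiplied by bin number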
- Conditions: c terminus: a fixed tail appended
Please go through the items and note down their protein stability index.
One number for each entry.

Recorded results for 4 variants are shown here.
D23A    2.07
L20Q    2.24
L20V    1.94
Q18M    2.02

Required: protein stability index, one value per variant below.
1. V16I
2. Y9C
3. T13I

[reply]
[2.19, 2.9, 1.6]

Required: protein stability index, one value per variant below.
1. L19P
2. L5C
3. A12R

[reply]
1: 2.65; 2: 1.82; 3: 2.04

Required: protein stability index, one value per variant below.
1. D10V
2. V16L
3. E7H
4. L5D
5. Q8H
6. R17P

[reply]
1. 1.27
2. 1.51
3. 1.76
4. 3.74
5. 2.04
6. 2.45

Required: protein stability index, one value per variant below.
1. T13A
2. R15I
3. R17L

[reply]
1: 2.41; 2: 2.01; 3: 2.13

Required: protein stability index, one value per variant below.
1. L19I
2. L20D
3. D23E

[reply]
1: 2.46; 2: 2.34; 3: 1.87

Required: protein stability index, one value per variant below.
1. A2P
2. Q18P

[reply]
3.45
2.04

Required: protein stability index, one value per variant below.
1. R17I
2. R15W
3. D6M
4. D6K
5. A2I

[reply]
1. 2.22
2. 1.61
3. 2.25
4. 2.4
5. 1.75

Required: protein stability index, one value per variant below.
1. L11S
2. D10L
3. D6S
4. K14V
5. L20S
6. V16T
7. Q8N

[reply]
1. 2.27
2. 1.72
3. 2.26
4. 1.84
5. 2.53
6. 2.59
7. 1.84
